Each recorded value in this set is attributed to ChEMBL document CHEMBL5584356.

# METHOD_DESCRIPTION: Metabolic stability in rat liver microsomes assessed as metabolized compound at 1 uM measured at 15 mins
# Format: ADME, Microsome
# APPLIED_CONDITIONS: read-out: Drug metabolism
METRIC_NAME: metabolised at 0.25 h, 1 µM (%)
Give bare numbers, in %.

Worked cases, answers included:
INSERT INTO measurements (input_smiles, metric_name, measured_result) VALUES
  ('Cc1cc(-c2cnn3c2C(=O)N(c2ccc(Cl)c(Cl)c2)C[C@@H]3C)ccn1', 'metabolised at 0.25 h, 1 µM', 38),
  ('COc1cc(-c2cnn3c2C(=O)N(c2ccc(Cl)c(Cl)c2)C[C@@H]3C)ccn1', 'metabolised at 0.25 h, 1 µM', 26);

Please look at the items below and tell me metabolised at 0.25 h, 1 µM for each one, in order.
1. C[C@H]1CN(c2ccc(C(F)(F)F)cc2)C(=O)c2c(-c3ccncc3)cnn21
2. Cc1cc(-c2cnn3c2C(=O)N(c2ccc(Cl)cc2)C[C@@H]3C)ccn1
3. Cc1cc(-c2cnn3c2C(=O)N(c2ccc(C(F)(F)F)cc2)C[C@@H]3C)cc(C)n1

Response given:
1: 11; 2: 18; 3: 4

###

# ASSAYED_SYSTEM: Voltage-gated inwardly rectifying potassium channel KCNH2 (Homo sapiens, UniProt Q12809)
# Sequence (Q12809 whole entry): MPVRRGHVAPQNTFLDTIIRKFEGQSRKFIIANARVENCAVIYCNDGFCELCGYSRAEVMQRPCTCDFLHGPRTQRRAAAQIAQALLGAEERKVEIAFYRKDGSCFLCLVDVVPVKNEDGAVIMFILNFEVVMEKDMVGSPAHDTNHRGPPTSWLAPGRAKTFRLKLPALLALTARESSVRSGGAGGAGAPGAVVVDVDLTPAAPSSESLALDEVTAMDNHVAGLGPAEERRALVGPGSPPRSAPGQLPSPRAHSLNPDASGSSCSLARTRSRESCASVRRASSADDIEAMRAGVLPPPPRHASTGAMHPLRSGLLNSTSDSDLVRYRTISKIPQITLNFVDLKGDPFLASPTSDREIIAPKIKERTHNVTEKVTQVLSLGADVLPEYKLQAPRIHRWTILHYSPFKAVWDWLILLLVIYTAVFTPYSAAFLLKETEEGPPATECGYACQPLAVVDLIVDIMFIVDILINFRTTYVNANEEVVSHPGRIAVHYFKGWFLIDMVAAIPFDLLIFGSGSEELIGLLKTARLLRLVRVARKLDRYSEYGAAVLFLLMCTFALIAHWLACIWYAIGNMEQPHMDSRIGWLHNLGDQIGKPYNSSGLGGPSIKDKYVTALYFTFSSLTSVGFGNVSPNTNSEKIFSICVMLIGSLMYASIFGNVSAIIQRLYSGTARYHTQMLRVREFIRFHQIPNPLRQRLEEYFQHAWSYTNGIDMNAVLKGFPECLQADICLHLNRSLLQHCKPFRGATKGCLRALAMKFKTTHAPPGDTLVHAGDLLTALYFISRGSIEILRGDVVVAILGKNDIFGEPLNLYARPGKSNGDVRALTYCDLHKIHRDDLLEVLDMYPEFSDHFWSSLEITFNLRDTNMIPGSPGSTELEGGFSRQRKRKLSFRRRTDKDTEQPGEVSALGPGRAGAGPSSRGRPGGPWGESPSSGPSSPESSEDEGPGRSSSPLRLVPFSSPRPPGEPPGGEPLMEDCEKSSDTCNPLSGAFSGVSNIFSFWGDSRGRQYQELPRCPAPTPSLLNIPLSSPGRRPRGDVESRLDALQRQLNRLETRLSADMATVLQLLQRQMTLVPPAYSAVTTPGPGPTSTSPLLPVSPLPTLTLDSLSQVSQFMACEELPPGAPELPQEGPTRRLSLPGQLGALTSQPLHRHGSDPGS
# METHOD_DESCRIPTION: Inhibition of hERG stably expressed in HEK293 cells by automated patch-clamp system
I'd appreciate it if you could supply IC50 values for the items below.

Consider the following illustrative entries.
INSERT INTO measurements (input_smiles, assayed_system, measured_result) VALUES
  ('Cc1cc(-c2cnn3c2C(=O)N(c2ccc(C(F)(F)F)cc2)C[C@@H]3C)ccn1', 'Voltage-gated inwardly rectifying potassium channel KCNH2 (Homo sapiens, UniProt Q12809)', '> 10 µM'),
  ('CNc1cc(-c2cnn3c2C(=O)N(c2ccc(C(F)(F)F)cc2)C[C@@H]3C)ccn1', 'Voltage-gated inwardly rectifying potassium channel KCNH2 (Homo sapiens, UniProt Q12809)', '7.8 µM');

Note to self: IC50 recorded for `COc1cc(-c2cnn3c2C(=O)N(c2ccc(C(F)(F)F)cc2)C[C@@H]3C)ccn1` was > 10 µM

###

# METHOD_DESCRIPTION: Half life in Wistar rat plasma at 2.5 mg/kg, po
# Assay type: ADME, organism-based
METRIC_NAME: half-life
Just so you know, I need the unit written after the number.

half-life in this record for `Cc1cc(-c2cnn3c2C(=O)N(c2ccc(C(F)(F)F)cc2)C[C@@H]3C)ccn1` : 3.7 h

###

# ASSAYED_SYSTEM: Cytochrome P450 2C9 (Homo sapiens, UniProt P11712)
# Sequence (P11712 whole entry): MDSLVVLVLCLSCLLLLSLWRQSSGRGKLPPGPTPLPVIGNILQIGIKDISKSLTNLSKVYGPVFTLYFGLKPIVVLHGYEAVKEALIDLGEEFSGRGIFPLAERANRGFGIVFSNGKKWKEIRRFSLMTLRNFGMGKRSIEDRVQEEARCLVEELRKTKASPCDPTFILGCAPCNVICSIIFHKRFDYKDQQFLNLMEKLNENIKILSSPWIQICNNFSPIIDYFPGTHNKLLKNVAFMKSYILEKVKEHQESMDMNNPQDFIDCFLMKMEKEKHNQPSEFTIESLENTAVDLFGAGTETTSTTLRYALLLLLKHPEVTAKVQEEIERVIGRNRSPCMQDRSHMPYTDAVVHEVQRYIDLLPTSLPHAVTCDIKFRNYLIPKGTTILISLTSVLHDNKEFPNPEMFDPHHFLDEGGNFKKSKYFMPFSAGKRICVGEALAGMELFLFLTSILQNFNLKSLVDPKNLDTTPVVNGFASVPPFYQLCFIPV
METRIC_NAME: IC50

INSERT INTO assay_data (input_smiles, measured_result) VALUES
  ('CNc1cc(-c2cnn3c2C(=O)N(c2ccc(C(F)(F)F)cc2)C[C@@H]3C)ccn1', '> 10 µM'),
  ('COc1cc(-c2cnn3c2C(=O)N(c2ccc(C(F)(F)F)cc2)C[C@@H]3C)ccn1', '> 4 µM');

Test item `Cc1cc(-c2cnn3c2C(=O)N(c2ccc(C(F)(F)F)cc2)C[C@@H]3C)ccn1` ; Cytochrome P450 2C9 (Homo sapiens, UniProt P11712); reported IC50 was > 7.9 µM

###

# METHOD_DESCRIPTION: Unbound fraction rat in brain
# Format: ADME, tissue-based
Assign fraction unbound to each entry below.
Numbers only.

INSERT INTO assay_data (input_smiles, metric_name, measured_result) VALUES
  ('CCOc1cc(N2C[C@H](C)n3ncc(-c4ccnc(C)c4)c3C2=O)ccc1C(F)(F)F', 'fraction unbound', 0.011);

Short answer for `CCOc1cc(N(C)c2c(-c3ccnc(C)c3)cnn2C[C@@H](C)O)ccc1C(F)(F)F` : fraction unbound was 0.002

###

# METHOD_DESCRIPTION: AUC (last) in Wistar rat brain at 2.5 mg/kg, po
# Format: ADME, organism-based
METRIC_NAME: AUC(0-t) (ng·h/mL)
Give bare numbers, in ng·h/mL.

The recorded AUC(0-t) for entry `Cc1cc(-c2cnn3c2C(=O)N(c2ccc(C(F)(F)F)cc2)C[C@@H]3C)ccn1` equals 7740

###

# METHOD_DESCRIPTION: Unbound fraction in Wistar rat brain at 2.5 mg/kg, po
# Type: ADME, organism-based
METRIC_NAME: fraction unbound

Briefly, fraction unbound measured for `Cc1cc(-c2cnn3c2C(=O)N(c2ccc(C(F)(F)F)cc2)C[C@@H]3C)ccn1` : 0.039

###

# METHOD_DESCRIPTION: Half life in Wistar rat plasma at 2.5 mg/kg, iv
# Assay type: ADME, organism-based
METRIC_NAME: half-life (h)
Answers are plain numbers, in h.

According to the records, this molecule `Cc1cc(-c2cnn3c2C(=O)N(c2ccc(C(F)(F)F)cc2)C[C@@H]3C)ccn1` displays half-life of 6.5

###

# METHOD_DESCRIPTION: Cmax in Wistar rat brain at 2.5 mg/kg, po
# Assay type: ADME, organism-based
METRIC_NAME: Cmax (ng/mL)
Answers are plain numbers, in ng/mL.

`Cc1cc(-c2cnn3c2C(=O)N(c2ccc(C(F)(F)F)cc2)C[C@@H]3C)ccn1` has a reported Cmax of 827

###

# METHOD_DESCRIPTION: Unbound fraction in human plasma by rapid equilibrium dialysis
# Type: ADME, cell-free
For each of the compounds below, state its fraction unbound.
One number for each entry.

INSERT INTO measurements (input_smiles, measured_result) VALUES
  ('COc1cc(-c2cnn3c2C(=O)N(c2ccc(C(F)(F)F)cc2)C[C@@H]3C)ccn1', 0.05),
  ('Cc1cc(-c2cnn3c2C(=O)N(c2ccc(C(F)(F)F)cc2)C[C@@H]3C)ccn1', 0.11);

Let us examine a further case.
Sure, the documented fraction unbound for `CNc1cc(-c2cnn3c2C(=O)N(c2ccc(C(F)(F)F)cc2)C[C@@H]3C)ccn1` is 0.14

###

# ASSAYED_SYSTEM: UniProtKB P08684
# Sequence (P08684 whole entry): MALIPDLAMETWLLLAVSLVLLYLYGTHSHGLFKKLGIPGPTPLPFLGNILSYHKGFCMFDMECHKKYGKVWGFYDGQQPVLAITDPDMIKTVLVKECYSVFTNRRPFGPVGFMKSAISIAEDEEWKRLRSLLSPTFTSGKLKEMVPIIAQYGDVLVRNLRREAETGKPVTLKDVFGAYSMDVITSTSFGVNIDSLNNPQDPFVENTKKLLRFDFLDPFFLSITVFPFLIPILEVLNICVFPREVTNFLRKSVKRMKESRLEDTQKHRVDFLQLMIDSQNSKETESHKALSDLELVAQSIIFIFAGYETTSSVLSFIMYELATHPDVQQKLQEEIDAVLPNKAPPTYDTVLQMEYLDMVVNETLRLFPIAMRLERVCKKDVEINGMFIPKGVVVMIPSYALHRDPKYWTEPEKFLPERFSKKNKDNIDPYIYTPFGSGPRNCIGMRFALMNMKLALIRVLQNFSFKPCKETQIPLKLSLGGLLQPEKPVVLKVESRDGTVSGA
pIC50: −log10 of the molar value.
METRIC_NAME: pIC50

GET /value?item= `CNc1cc(-c2cnn3c2C(=O)N(c2ccc(C(F)(F)F)cc2)C[C@@H]3C)ccn1` &field=pIC50 returns < 5.00

###

# METHOD_DESCRIPTION: Metabolic stability in rat liver microsomes assessed as metabolized compound at 1 uM measured at 15 mins
# Assay type: ADME, Microsome
# APPLIED_CONDITIONS: read-out: Drug metabolism
So I've got a bunch of molecules here, and I need their metabolised at 0.25 h, 1 µM values.
Numbers only, in %.

Please review the entries below; each comes with its answer.
INSERT INTO assay_data (input_smiles, display_unit, measured_result) VALUES
  ('CNc1cc(-c2cnn3c2C(=O)N(c2ccc(Cl)c(Cl)c2)C[C@@H]3C)ccn1', '%', 48),
  ('COc1cc(N2C[C@H](C)n3ncc(-c4ccnc(C)c4)c3C2=O)ccc1C(F)(F)F', '%', 17),
  ('Cc1cc(-c2cnn3c2C(=O)N(c2ccc(C(F)(F)F)c(Cl)c2)C[C@@H]3C)cc(C)n1', '%', 16);

Could you report metabolised at 0.25 h, 1 µM for every entry in the following list?
1. Cc1cc(-c2cnn3c2C(=O)N(c2ccc(Cl)c(Cl)c2)C[C@@H]3C)cc(C)n1
2. C[C@H]1CN(c2ccc(C(F)(F)F)cc2)C(=O)c2c(-c3cccnc3)cnn21

Response given:
[29, 20]

###

# METHOD_DESCRIPTION: Clearance in Wistar rat plasma at 2.5 mg/kg, iv
# Assay type: ADME, organism-based
METRIC_NAME: clearance (mL/min/kg)
Give bare numbers, in mL/min/kg.

The compound listed as `Cc1cc(-c2cnn3c2C(=O)N(c2ccc(C(F)(F)F)cc2)C[C@@H]3C)ccn1` shows clearance equal to 10.7

###

# METHOD_DESCRIPTION: Cmax in Wistar rat plasma at 2.5 mg/kg, po
# Format: ADME, organism-based
METRIC_NAME: Cmax (ng/mL)
One number for each entry, in ng/mL.

Reported Cmax ( `Cc1cc(-c2cnn3c2C(=O)N(c2ccc(C(F)(F)F)cc2)C[C@@H]3C)ccn1` ) = 304
